// provenance: patent US20130273029A1

# tested on: Human HER3, endogenous, on human cancer cell lines (SK-Br-3, MCF7, BT-474) (human, UniProt P21860 20-1342)
# Sequence (P21860 20-1342): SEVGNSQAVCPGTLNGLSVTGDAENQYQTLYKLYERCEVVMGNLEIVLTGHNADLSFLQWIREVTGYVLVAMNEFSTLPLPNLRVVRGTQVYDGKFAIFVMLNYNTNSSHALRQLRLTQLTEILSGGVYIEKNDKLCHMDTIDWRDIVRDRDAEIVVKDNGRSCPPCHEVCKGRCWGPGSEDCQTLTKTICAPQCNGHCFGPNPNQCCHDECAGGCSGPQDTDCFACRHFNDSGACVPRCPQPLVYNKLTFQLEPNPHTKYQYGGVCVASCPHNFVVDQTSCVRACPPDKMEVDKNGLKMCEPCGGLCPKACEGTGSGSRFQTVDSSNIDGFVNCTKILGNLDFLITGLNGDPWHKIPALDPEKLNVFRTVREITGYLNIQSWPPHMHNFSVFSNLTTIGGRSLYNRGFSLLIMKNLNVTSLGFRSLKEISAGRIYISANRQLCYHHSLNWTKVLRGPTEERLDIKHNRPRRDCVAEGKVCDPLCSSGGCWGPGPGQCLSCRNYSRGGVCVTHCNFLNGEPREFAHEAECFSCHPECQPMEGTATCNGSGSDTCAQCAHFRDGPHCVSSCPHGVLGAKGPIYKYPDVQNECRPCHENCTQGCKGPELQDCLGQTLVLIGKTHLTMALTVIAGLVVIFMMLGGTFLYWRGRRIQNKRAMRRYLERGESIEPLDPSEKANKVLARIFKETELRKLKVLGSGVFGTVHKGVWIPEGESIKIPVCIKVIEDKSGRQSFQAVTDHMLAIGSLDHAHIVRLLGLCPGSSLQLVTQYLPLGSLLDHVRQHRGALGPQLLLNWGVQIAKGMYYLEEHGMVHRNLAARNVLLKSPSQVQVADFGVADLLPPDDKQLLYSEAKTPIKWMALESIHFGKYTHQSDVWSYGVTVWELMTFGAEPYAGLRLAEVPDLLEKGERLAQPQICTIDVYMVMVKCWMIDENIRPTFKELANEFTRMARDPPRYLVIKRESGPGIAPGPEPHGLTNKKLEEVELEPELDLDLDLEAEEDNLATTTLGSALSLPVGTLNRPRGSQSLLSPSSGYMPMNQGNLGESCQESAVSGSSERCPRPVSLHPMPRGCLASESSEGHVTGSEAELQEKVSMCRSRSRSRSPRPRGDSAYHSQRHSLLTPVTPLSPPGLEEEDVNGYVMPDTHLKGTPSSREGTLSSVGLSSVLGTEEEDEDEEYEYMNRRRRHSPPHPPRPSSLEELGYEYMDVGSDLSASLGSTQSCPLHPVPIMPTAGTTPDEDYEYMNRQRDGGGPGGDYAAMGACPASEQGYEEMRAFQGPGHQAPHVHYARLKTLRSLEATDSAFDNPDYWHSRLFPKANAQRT
# experiment notes: cell-based or functional assay
We use 0.3 nM as the dividing line for SK-Br-3 proliferation IC50: on or above the line is t, below is f.

binder	class assignment
MOR13767 (antibody, human IgG1, kappa, V domains shown, tested as IgG) VH: QVQLVQSGAEVKKPGESLKISCKGSGYSFTTSWVAWVRQMPGKGLEWMGIIYPGQSDTIYSPSFQGQVTISADKSISTAYLQWSSLKASDTAMYYCARVHIIQPPSAWSYNAMDVWGQGTLVTVSS VL: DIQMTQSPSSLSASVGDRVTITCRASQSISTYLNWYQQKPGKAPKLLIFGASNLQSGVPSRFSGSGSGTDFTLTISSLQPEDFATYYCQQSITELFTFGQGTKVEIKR	f
MOR12616 (antibody, human IgG1, kappa, V domains shown, tested as IgG) VH: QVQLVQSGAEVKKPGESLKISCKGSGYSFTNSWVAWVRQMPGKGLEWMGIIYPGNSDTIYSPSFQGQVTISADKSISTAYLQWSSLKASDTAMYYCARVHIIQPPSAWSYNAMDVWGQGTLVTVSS VL: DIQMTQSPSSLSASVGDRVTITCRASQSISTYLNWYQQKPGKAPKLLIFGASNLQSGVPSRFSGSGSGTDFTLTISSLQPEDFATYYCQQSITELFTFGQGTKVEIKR	f
MOR14535 (antibody, human IgG1, kappa, V domains shown, tested as IgG) VH: EVQLVQSGAEVKKPGESLKISCKGSGYSFTTTWVAWVRQMPGKGLEWMGIIYPGLSDTIYSPSFQGQVTISADKSISTAYLQWSSLKASDTAMYYCARVHIIQPPSAWSYNAMDVWGQGTLVTVSS VL: DIQMTQSPSSLSASVGDRVTITCRASQSISTYLNWYQQKPGKAPKLLIYGASNLQSGVPSRFSGSGSGTDFTLTISSLQPEDFATYYCQQSITELFTFGQGTKVEIKR	f
MOR13758 (antibody, human IgG1, kappa, V domains shown, tested as IgG) VH: QVQLVQSGAEVKKPGESLKISCKGSGYSFTLYWVAWVRQMPGKGLEWMGIIYPGQSDTIYSPSFQGQVTISADKSISTAYLQWSSLKASDTAMYYCARVHIIQPPSAWSYNAMDVWGQGTLVTVSS VL: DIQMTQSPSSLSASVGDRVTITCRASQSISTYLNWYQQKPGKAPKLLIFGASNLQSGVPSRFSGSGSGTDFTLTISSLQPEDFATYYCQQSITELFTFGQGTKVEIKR	f
MOR12509 (antibody, human IgG1, kappa, V domains shown, tested as IgG) VH: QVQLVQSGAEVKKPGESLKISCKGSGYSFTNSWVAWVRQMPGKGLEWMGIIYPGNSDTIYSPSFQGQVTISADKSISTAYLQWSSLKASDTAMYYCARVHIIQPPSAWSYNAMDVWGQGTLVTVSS VL: DIQMTQSPSSLSASVGDRVTITCRASQSITHYLNWYQQKPGKAPKLLIFGASNLQSGVPSRFSGSGSGTDFTLTISSLQPEDFATYYCQQAFVDPSTTFGQGTKVEIKR	t
MOR13759 (antibody, human IgG1, kappa, V domains shown, tested as IgG) VH: QVQLVQSGAEVKKPGESLKISCKGSGYSFTTTWVAWVRQMPGKGLEWMGIIYPGLSDTIYSPSFQGQVTISADKSISTAYLQWSSLKASDTAMYYCARVHIIQPPSAWSYNAMDVWGQGTLVTVSS VL: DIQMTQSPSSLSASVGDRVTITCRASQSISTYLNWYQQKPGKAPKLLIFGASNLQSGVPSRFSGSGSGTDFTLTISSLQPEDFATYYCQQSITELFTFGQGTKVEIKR	f
